Every entry's value here was drawn from PubChem BioAssay (NCI).

Test system: COLO 205 colon
Assay Overview: NCI-60 one-dose screen, 48 h (100 = growth as untreated, 0 = no growth, -100 = all killed)
Test Parameters: 10 µM unless noted
This is part of a sample that, as a whole, favours compounds with a hit. Of some 83,000 tested, about 20% had one in any assay.
Measured Metric: growth (%)
API: value field is a number in %; no unit string.

Exercise: Need growth, item O=[N+]([O-])c1c(Br)sc(Br)c1[N+](=O)[O-]
Key: -77.7

Exercise: Need growth, item N#C[Se]Cc1cc(-c2ccccc2)n(-c2ccc(S(N)(=O)=O)cc2)n1
Key: -83.4

Exercise: Need growth, item Nc1nnnc2nc[nH]c12
Key: 6.07

Exercise: Need growth, item COc1ccc(S(=O)(=O)N(Cc2ccc3c(c2)C=CC(C)(C)O3)c2ccccc2)cc1OC
Key: 64.7

Exercise: Need growth, item CCC(C)(C)[C@H](NC(=O)[C@H]1CCCCN1C)C(=O)N(C)[C@H](C[C@@H](OC(C)=O)c1nc(C(=O)N[C@@H](Cc2ccccc2)C[C@H](C)C(=O)O)cs1)C(C)C
Key: -51.2

Exercise: Need growth, item C1CCC([PH+](C2CCCCC2)C2CCCCC2[PH+](C2CCCCC2)C2CCCCC2)CC1.[Au].[CH-]1CCCCC1CC1CCCC[N-]1 (centres undefined)
Key: -47.7

Exercise: Need growth, item C/C(=C\c1ccn(-c2ccc(N)c(F)c2)n1)[C@@H]1C[C@@H]2O[C@]2(C)CCC[C@H](C)[C@H](O)[C@@H](C)C(=O)C(C)(C)[C@@H](O)CC(=O)O1
Key: -8.2

Exercise: Need growth, item C[N+]12CN3CN(CN(C3)C1)C2
Key: 99.4

Exercise: Need growth, item CN1CCC(c2c[nH]c3ccccc23)C1 (centres undefined)
Key: 108

* * *

System: DU-145 prostate
Assay Overview: NCI-60 one-dose screen, 48 h (100 = growth as untreated, 0 = no growth, -100 = all killed)
Test Parameters: 10 µM unless noted
Compounds without any hit were thinned out: in the full panel of roughly 83,000, 20% have a hit.
Mark y for growth under 90%, n if at or over.

Exercise: I'd appreciate it if you could check whether O=C(c1cccc(O)c1O)c1cn(Cc2ccc(F)cc2)c2cccc(O)c12 has growth smaller than 90%.
Key: y

Exercise: I'd appreciate it if you could check whether C[C@@H]1CCC2[C@@H](C)[C@H](OC(=O)CCC(=O)NCCNC(=O)Cc3cc(=O)oc4cc(N(C)C)ccc34)O[C@@H]3O[C@]4(C)CC[C@@H]1C23OO4 (some centres undefined) has growth smaller than 90%.
Key: n

Exercise: I'd appreciate it if you could check whether CCOC(=O)N1CC1 has growth smaller than 90%.
Key: n

Exercise: I'd appreciate it if you could check whether CCCOC(=O)N[C@H]1CCc2c(Br)c(OC)c(OC)c(OC)c2-c2ccc(SC)c(=O)cc21 has growth smaller than 90%.
Key: y

Exercise: I'd appreciate it if you could check whether C=C(C)[C@@]12OC3(/C=C/C=C/CCCCC)O[C@@H]1[C@@H]1[C@@H]4O[C@]4(CO)[C@@H](O)[C@]4(O)C(=O)C(C)=C[C@H]4[C@@]1(O3)[C@H](C)[C@H]2OC(=O)c1ccccc1 has growth smaller than 90%.
Key: y

Exercise: I'd appreciate it if you could check whether Cc1cc(N(CCCl)CCCl)ccc1C=Nc1ccccc1-c1ccccc1 has growth smaller than 90%.
Key: y

Exercise: I'd appreciate it if you could check whether c1cnc2[nH]cc(-c3csc(-c4cn(CCCCN5CCOCC5)c5ccccc45)n3)c2c1 has growth smaller than 90%.
Key: y

Exercise: I'd appreciate it if you could check whether O=C1OCC2=C1C(c1ccccc1)c1cc3c(cc1N2)OCO3 (centres undefined) has growth smaller than 90%.
Key: y

Exercise: I'd appreciate it if you could check whether COC(=O)[C@@]1(C)CC[C@]2(C)CC[C@]3(C)C4=CC(=O)c5c(cc(O)c(O)c5C)[C@]4(C)CC[C@@]3(C)[C@@H]2C1 has growth smaller than 90%.
Key: y

Exercise: I'd appreciate it if you could check whether CC(C)(N)Cc1ccccc1 has growth smaller than 90%.
Key: n

Exercise: I'd appreciate it if you could check whether Cc1cc(N(CCCl)CCCl)ccc1/C=N\NC(=O)c1ccncc1 has growth smaller than 90%.
Key: y

Exercise: I'd appreciate it if you could check whether C/C(=C\c1cc(C(F)(F)F)nn1CCNC(=O)OC(C)(C)C)[C@@H]1C[C@@H]2O[C@]2(C)CCC[C@H](C)[C@H](O)[C@@H](C)C(=O)C(C)(C)[C@@H](O)CC(=O)O1 has growth smaller than 90%.
Key: y

Exercise: I'd appreciate it if you could check whether C[N+](C)(C)Cc1cc(Cl)ccc1O has growth smaller than 90%.
Key: n

Exercise: I'd appreciate it if you could check whether C[C@]12CCc3sc(NCCc4ccccc4)nc3C1=CC[C@@H]1[C@@H]2CC[C@]2(C)C(=O)CC[C@@H]12 has growth smaller than 90%.
Key: y

Exercise: I'd appreciate it if you could check whether Clc1ccc(N2COOC3(OOC2)C2CC4CC(C2)CC3C4)cc1 has growth smaller than 90%.
Key: y

Exercise: I'd appreciate it if you could check whether Cc1ccc(S(=O)(=O)F)cc1C(=O)O has growth smaller than 90%.
Key: n

Exercise: I'd appreciate it if you could check whether O=C(CCCCCCC(=O)Nc1ccc(N(CCCl)CCCl)cc1)NO has growth smaller than 90%.
Key: y

Exercise: I'd appreciate it if you could check whether COc1ccc(S(=O)(=O)N(Cc2ccc3c(c2)C=CC(C)(C)O3)c2ccccc2)cc1OC has growth smaller than 90%.
Key: n

* * *

Test system: NCI-H322M lung
Assay Overview: NCI-60 one-dose screen, 48 h (100 = growth as untreated, 0 = no growth, -100 = all killed)
Test Parameters: 10 µM unless noted
The panel holds about 83,000 compounds, 20% with a hit somewhere; the sample as a whole holds those more often.
Measured Metric: growth (%)
API: value field is a number in %; no unit string.

Exercise: Query the reported growth for NCI-H322M lung; item: N#Cc1c(Br)n(C2OC(CO)C(O)C2O)c2ncnc(N)c12 (centres undefined)
Key: 81

Exercise: Query the reported growth for NCI-H322M lung; item: CO[C@H](C(=O)O)[C@@H]1Cc2cc3cc(OC4CC(OC5CC(O)C(O)C(C)O5)C(O)C(C)O4)c(C)c(O)c3c(O)c2C(=O)[C@H]1OC1CC(OC2CC(OC3CC(C)(O)C(O)C(C)O3)C(O)C(C)O2)C(O)C(C)O1 (some centres undefined)
Key: 21.6

Exercise: Query the reported growth for NCI-H322M lung; item: CCn1c2ccccc2c2cc(C(=O)c3ccc(C)c4ccccc34)ccc21
Key: 28.1

Exercise: Query the reported growth for NCI-H322M lung; item: CCN(CC)c1ccc2c(c1)OC(N)=C(C#N)C2c1cc(OC)c2c(c1)OCO2 (centres undefined)
Key: 47.1

* * *

Test system: A549/ATCC NSCLC
Assay Overview: NCI-60 one-dose screen, 48 h (100 = growth as untreated, 0 = no growth, -100 = all killed)
Test Parameters: 10 µM unless noted
Method: Growth inhibition of the A549/ATCC human Non-Small Cell Lung tumor cell line is measured as a screen for anti-cancer activity. Cells are grown in 96 well plates and exposed to the test compound for 48 hours. Compounds are tested at a single concentration, which is 10^-5 M for most compounds. The reported endpoint is percent growth (GI% or GIPRCNT), where numbers from 0 - 100% represent growth inhibition, and numbers from -100% - 0 represent cell death. […]
Compounds without any hit were thinned out: in the full panel of roughly 83,000, 20% have a hit.
Consider the following compounds; for each one, report its growth.
API: value field is a number in %; no unit string.

Exercise: Query the reported growth for A549/ATCC NSCLC; item: CC(=O)O[C@H](C[C@H](C(C)C)N(C)C(=O)[C@@H](NC(=O)[C@H]1CCCCN1C)C(C)C)c1nc(C(=O)NC2CCC(C(=O)O)CC2)cs1 (stereo not given in full)
Key: 57.8

Exercise: Query the reported growth for A549/ATCC NSCLC; item: CC(=O)O[C@H]1C(=O)[C@@]2(C)[C@H]([C@H](OC(=O)c3ccccc3)[C@]3(O)C[C@H](OC(=O)[C@H](OC(=O)OCC4COC(C)(C)O4)[C@@H](NC(=O)c4ccccc4)c4ccccc4)C(C)=C1C3(C)C)[C@]1(OC(C)=O)CO[C@@H]1C[C@@H]2O (stereo not given in full)
Key: 30

Exercise: Query the reported growth for A549/ATCC NSCLC; item: CCOP(=O)(NC[C@H]1O[C@](O)(CO)[C@@H](O)[C@@H]1O)OCC
Key: 96.6

Exercise: Query the reported growth for A549/ATCC NSCLC; item: Clc1ccc(N2COOC3(OOC2)C2CC4CC(C2)CC3C4)cc1
Key: 47.4

Exercise: Query the reported growth for A549/ATCC NSCLC; item: C/C(=C\c1ccn(-c2ccc(N)c(F)c2)n1)[C@@H]1C[C@@H]2O[C@]2(C)CCC[C@H](C)[C@H](O)[C@@H](C)C(=O)C(C)(C)[C@@H](O)CC(=O)O1
Key: 26.5

Exercise: Query the reported growth for A549/ATCC NSCLC; item: Cc1cc(N(CCCl)CCCl)ccc1C=Nc1ccc(-c2csc(Cc3ccccc3)n2)cc1
Key: 50.7

Exercise: Query the reported growth for A549/ATCC NSCLC; item: CCCCNC(c1ccc(Cl)cc1)C(O)c1ccc(Cl)cc1 (stereo not given)
Key: 63.5

Exercise: Query the reported growth for A549/ATCC NSCLC; item: O=C(CCCCCNC1=CC(=O)c2ccccc2C1=O)NCCC[Te]c1ccccc1
Key: -45.4

Exercise: Query the reported growth for A549/ATCC NSCLC; item: COC(=O)[C@H](Cc1c[nH]c2ccccc12)NC(=O)[C@@H](OC)[C@@H]1Cc2cc3cc(OC4CC(OC5CC(O)C(O)C(C)O5)C(O)C(C)O4)c(C)c(O)c3c(O)c2C(=O)[C@H]1OC1CC(OC2CC(OC3CC(C)(O)C(O)C(C)O3)C(O)C(C)O2)C(O)C(C)O1 (stereo not given in full)
Key: 12.7

Exercise: Query the reported growth for A549/ATCC NSCLC; item: COc1ccc(Nc2ccc([N+](=O)[O-])cc2[N+](=O)[O-])cc1CN(CCCl)CCCl
Key: 33.5

Exercise: Query the reported growth for A549/ATCC NSCLC; item: CN1CCC(c2c[nH]c3ccccc23)C1 (stereo not given)
Key: 122

Exercise: Query the reported growth for A549/ATCC NSCLC; item: O=C(CN1CCN(C(=O)c2ccco2)CC1)Nc1ccc(Cl)cc1C(=O)c1ccccc1Cl
Key: 77.2

Exercise: Query the reported growth for A549/ATCC NSCLC; item: C=CCc1cc2c(cc1OCC)OCO2
Key: 88.9

Exercise: Query the reported growth for A549/ATCC NSCLC; item: COC(=O)[C@@H](C)C[C@H](Cc1ccccc1)NC(=O)c1csc([C@@H](C[C@H](C(C)C)N(C)C(=O)C2(NC(=O)[C@H]3CCCCN3C)CC2)OC(C)=O)n1
Key: 11.7

Exercise: Query the reported growth for A549/ATCC NSCLC; item: C[C@]12CC[C@H]3[C@@H](C[C@@H]4SC(Nc5ccccc5)=N[C@@]45CC(O)CC[C@]35C)[C@@H]1CCC2O (stereo not given in full)
Key: 57.1
